Data origin: the supplement of paper PMC13380429

# System: Vero E6 infected with SARS-CoV-2
# ASSAY: morphology score (similarity to uninfected cells); higher = more like uninfected cells
# CONDITIONS_USED: 24 h

# COMPOUND, morphology score
measured = [
    ("O=C(Nc1ccc(C(=O)O)c(O)c1)c1ccccc1 [benzoylpas] (10 µM)", 0.206),
    ("O=C(O)Cc1cccnc1C(=O)O [homoquinolinic-acid] (10 µM)", 0.0575),
    ("COc1ccccc1N1CCN(CCN2C(=O)c3ccccc3C(C)(C)C2=O)CC1 (10 µM)", 0.213),
    ("COc1ccc(CCN2CCN(CCCc3ccccc3)CC2)cc1OC [cutamesine] (10 µM)", -0.0482),
    ("CO[C@@]1(NC(=O)Cc2cccs2)C(=O)N2C(C(=O)O)=C(COC(N)=O)CS[C@@H]21 [cefoxitin] (10 µM)", 0.228),
    ("O=S(=O)(c1ccccc1)c1cnc2c(N3CCNCC3)cccc2c1 (10 µM)", -0.0691),
    ("O=C(O)c1ccc(O)c2ncccc12 (10 µM)", 0.022),
    ("CCOc1cc2ncc(C#N)c(Nc3ccc(OCc4ccccn4)c(Cl)c3)c2cc1NC(=O)/C=C/CN(C)C [neratinib] (10 µM)", -0.265),
    ("C[C@H]1[C@H](NC(=O)/C(=N\\OC(C)(C)C(=O)O)c2csc(N)n2)C(=O)N1S(=O)(=O)O [aztreonam] (10 µM)", -0.0447),
    ("CCC1=C[C@@H]2CN(C1)Cc1c([nH]c3ccccc13)[C@@](C(=O)OC)(c1cc3c(cc1OC)N(C)[C@H]1[C@@](O)(C(=O)OC)[C@H](OC(C)=O)[C@]4(CC)C=CCN5CC[C@]31[C@@H]54)C2 [vinorelbine] (10 µM)", -0.193),
    ("CC(C)(C)NC(=O)N[C@H](C(=O)N1C[C@H]2[C@@H]([C@H]1C(=O)NC(CC1CCC1)C(=O)C(N)=O)C2(C)C)C(C)(C)C (stereo partly specified) [Boceprevir] (10 µM)", 0.133),
    ("C[N+]1([O-])[C@@H]2C[C@@H](OC(=O)[C@H](CO)c3ccccc3)C[C@H]1[C@@H]1O[C@@H]12 (stereo partly specified) [scopolamine-N-oxide] (10 µM)", 0.142),
    ("O=C(O)c1ccc(CN2CCC(CN[C@@H]3C[C@H]3c3ccccc3)CC2)cc1 (10 µM)", 0.106),
    ("CC(C)[C@H](N)C(=O)OCC(CO)OCn1cnc2c(=O)nc(N)[nH]c21 (mixture of isomers) [valganciclovir] (10 µM)", 0.118),
    ("O=C(N[C@H](CO)[C@H](O)c1ccc([N+](=O)[O-])cc1)C(Cl)Cl [chloramphenicol] (10 µM)", -0.278),
    ("CNCc1cc(-c2ccccc2F)n(S(=O)(=O)c2cccnc2)c1 [vonoprazan] (10 µM)", 0.00653),
]
